Biological target: C-terminal catalytic site of the Angiotensin I converting enzyme (recombinant ACE) (Homo sapiens, UniProt P12821)
Sequence (P12821 643-1222 limits assumed, species assumed): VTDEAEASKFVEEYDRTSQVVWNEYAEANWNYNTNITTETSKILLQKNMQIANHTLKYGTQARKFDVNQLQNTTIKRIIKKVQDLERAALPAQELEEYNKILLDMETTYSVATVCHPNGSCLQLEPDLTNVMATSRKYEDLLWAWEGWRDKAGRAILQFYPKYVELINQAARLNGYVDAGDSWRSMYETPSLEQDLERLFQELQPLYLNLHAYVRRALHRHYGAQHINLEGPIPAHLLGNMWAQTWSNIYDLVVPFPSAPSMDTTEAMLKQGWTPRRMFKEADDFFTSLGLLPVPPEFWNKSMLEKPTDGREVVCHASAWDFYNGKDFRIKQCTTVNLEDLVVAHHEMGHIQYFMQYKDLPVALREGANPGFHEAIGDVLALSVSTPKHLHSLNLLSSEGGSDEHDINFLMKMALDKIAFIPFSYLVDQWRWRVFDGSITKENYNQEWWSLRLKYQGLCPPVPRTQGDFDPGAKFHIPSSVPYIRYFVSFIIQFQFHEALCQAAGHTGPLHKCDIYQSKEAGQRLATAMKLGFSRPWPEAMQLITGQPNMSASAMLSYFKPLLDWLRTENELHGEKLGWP
Assay: Inhibition of the C-terminal catalytic site of recombinant ACE (fluorogenic substrate)
Assay type: biochemical
Square brackets hold non-standard residues; d marks the D form. Peptide text beside a SMILES is read from it. pGlu = O=C1CC[C@@H](C(=O)O)N1
quantity: pKi
Keep it numeric: pKi is minus log10 of the concentration in mol/L.

Exercise: pKi for CC[C@H](C)[C@H](NC(=O)[C@H](CC(N)=O)NC(=O)[C@@H]1CCCN1C(=O)CNC(=O)[C@@H]1CCCN1C(=O)[C@H](Cc1c[nH]c2ccccc12)NC(=O)[C@H](CO)NC(=O)[C@@H]1CCC(=O)N1)C(=O)N1CCC[C@H]1C(=O)N1CCC[C@H]1C(=O)O [EVASIN-10a, <ESWPGPNIPP] ([pGlu]SWPGPNIPP-OH; C-terminus assumed) ?
Solution: 7.48

Exercise: pKi for CC[C@H](C)[C@H](NC(=O)[C@H](CCC(N)=O)NC(=O)[C@@H]1CCCN1C(=O)[C@H](CCCNC(=N)N)NC(=O)[C@@H]1CCCN1C(=O)[C@H](Cc1c[nH]c2ccccc12)NC(=O)[C@H](C)NC(=O)[C@H](Cc1c[nH]c2ccccc12)NC(=O)CNC(=O)[C@@H]1CCC(=O)N1)C(=O)N1CCC[C@H]1C(=O)N1CCC[C@H]1C(=O)O [EVASIN-12a, <EGWAWPRPQIPP] ([pGlu]GWAWPRPQIPP-OH; C-terminus assumed) ?
Solution: 7.60

---
Exercise: pKi for CC[C@H](C)[C@H](NC(=O)[C@@H]1CCCN1C(=O)[C@@H]1CCCN1C(=O)CNC(=O)[C@@H]1CCCN1C(=O)[C@@H]1CCCN1C(=O)[C@H](CCCNC(=N)N)NC(=O)CNC(=O)[C@H](Cc1c[nH]c2ccccc12)NC(=O)[C@@H]1CCC(=O)N1)C(=O)N1CCC[C@H]1C(=O)N1CCC[C@H]1C(=O)O [EVASIN-12b, <EWGRPPGPPIPP] ([pGlu]WGRPPGPPIPP-OH; C-terminus assumed) ?
Solution: 6.82

* * *

Molecular target: C-terminal catalytic site of the Angiotensin I converting enzyme (recombinant ACE) (Homo sapiens, UniProt P12821)
Assay: Inhibition of the C-terminal catalytic site of recombinant ACE (fluorogenic substrate)
Format: biochemical
Square brackets hold non-standard residues; d marks the D form. Peptide text beside a SMILES is read from it. pGlu = O=C1CC[C@@H](C(=O)O)N1
quantity: pKi
Keep it numeric: pKi is minus log10 of the concentration in mol/L.

Example cases with answers are listed next.
Exercise: pKi for CC[C@H](C)[C@H](NC(=O)[C@@H]1CCCN1C(=O)[C@@H]1CCCN1C(=O)CNC(=O)[C@@H]1CCCN1C(=O)[C@H](C)NC(=O)[C@H](CCCNC(=N)N)NC(=O)CNC(=O)[C@@H]1CCC(=O)N1)C(=O)N1CCC[C@H]1C(=O)N1CCC[C@H]1C(=O)O [EVASIN-11b, <EGRAPGPPIPP] ([pGlu]GRAPGPPIPP-OH; C-terminus assumed) ?
Solution: 7.24

Exercise: pKi for CC[C@H](C)[C@H](NC(=O)[C@H](CCC(N)=O)NC(=O)[C@@H]1CCCN1C(=O)[C@H](Cc1c[nH]cn1)NC(=O)[C@@H]1CCCN1C(=O)[C@H](Cc1c[nH]c2ccccc12)NC(=O)[C@H](CC(N)=O)NC(=O)[C@@H]1CCC(=O)N1)C(=O)N1CCC[C@H]1C(=O)N1CCC[C@H]1C(=O)O [EVASIN-10c, <ENWPHPQIPP] ([pGlu]NWPHPQIPP-OH; C-terminus assumed) ?
Solution: 9.30

---
Exercise: pKi for CC[C@H](C)[C@H](NC(=O)[C@@H]1CCCN1C(=O)[C@@H]1CCCN1C(=O)[C@H](Cc1c[nH]cn1)NC(=O)[C@@H]1CCCN1C(=O)[C@H](C)NC(=O)[C@H](CCCNC(=N)N)NC(=O)CNC(=O)[C@@H]1CCC(=O)N1)C(=O)N1CCC[C@H]1C(=O)N1CCC[C@H]1C(=O)O [EVASIN-11c, <EGRAPHPPIPP] ([pGlu]GRAPHPPIPP-OH; C-terminus assumed) ?
Solution: 7.40

Exercise: pKi for CC[C@H](C)[C@H](NC(=O)[C@H](CCC(=O)O)NC(=O)[C@@H]1CCCN1C(=O)CNC(=O)[C@@H]1CCCN1C(=O)[C@H](CCCNC(=N)N)NC(=O)[C@@H]1CCCN1C(=O)[C@H](Cc1c[nH]c2ccccc12)NC(=O)CNC(=O)CNC(=O)[C@@H]1CCC(=O)N1)C(=O)N1CCC[C@H]1C(=O)N1CCC[C@H]1C(=O)O [EVASIN-13a, <EGGWPRPGPEIPP] ([pGlu]GGWPRPGPEIPP-OH; C-terminus assumed) ?
Solution: 7.30

src = patent US20080199503A1
